Parameter: Kd. Scope: all listed entries.
Molecular target: TYK2 JH2 (Homo sapiens, UniProt P29597)
Construct: purchased DiscoverX (KINOMEscan KdELECT service); host or cells: E. coli BL21-derived (T7 phage display) or HEK-293
Sequence (P29597 589-875 limits assumed): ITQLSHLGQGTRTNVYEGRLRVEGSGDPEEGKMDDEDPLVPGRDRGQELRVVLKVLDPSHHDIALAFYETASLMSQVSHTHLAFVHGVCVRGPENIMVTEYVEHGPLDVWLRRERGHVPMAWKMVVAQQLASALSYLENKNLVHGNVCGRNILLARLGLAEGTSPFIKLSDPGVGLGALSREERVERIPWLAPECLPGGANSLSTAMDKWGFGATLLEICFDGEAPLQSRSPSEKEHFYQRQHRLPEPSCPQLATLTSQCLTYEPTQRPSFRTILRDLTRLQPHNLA
Experiment: TYK2 JH2 binding assay (KINOMEscan KdELECT competitive binding)
Conditions: TYK2 JH2 domain, KINOMEscan KdELECT (Assay A); read-out: Biochemical TYK2_JH2_Kd

These recorded examples may help you get a feel for the data.
CNc1ncc(-c2ccn(CC3CCS(=O)(=O)CC3)n2)c2cc(NC(=O)C3CC3)ncc12 [Example 153B] | ≤ 100 nM
CNc1ncc(C2CCCCC2)c2cc(NC(=O)C3CC3)ncc12 | ≤ 100 nM

QUERY: Report Kd for CNc1ncc(C(=O)O)c2cc(NC(=O)C3CC3)ncc12 tested on TYK2 JH2 (Homo sapiens, UniProt P29597).
RESULT: 100 to 1000 nM

QUERY: Next entry: CNc1ncc(-c2ccnn2Cc2ccccc2)c2cc(NC(=O)C3CC3)ncc12
RESULT: ≤ 100 nM

QUERY: And then CNc1ncc(/C(C)=C/c2ccccc2)c2cc(NC(=O)C3CC3)ncc12 , what is it?
RESULT: ≤ 100 nM

QUERY: How about CNc1ncc(-c2ccccc2)c2cc(NC(=O)C3CC3(F)F)ncc12 (stereo not drawn) ?
RESULT: ≤ 100 nM

QUERY: Queued: CNc1ncc(-c2ncsc2C)c2cc(NC(=O)C3CC3)ncc12
RESULT: ≤ 100 nM

QUERY: Would you kindly repeat that for CNc1nccc2cc(NC(=O)C3CC3)ncc12 ?
RESULT: 100 to 1000 nM

QUERY: Try CNc1ncc(-c2cccc(-c3ncn(C)n3)c2OC)c2cc(NC(=O)C3CC3)ncc12 next.
RESULT: ≤ 100 nM

QUERY: Would you mind doing CNc1ncc(-c2nc(C)c[nH]2)c2cc(NC(=O)C3CC3)ncc12 as well?
RESULT: ≤ 100 nM

QUERY: Again, but for CNc1ncc(C(=O)N2CCCCC2)c2cc(NC(=O)C3CC3)ncc12
RESULT: 100 to 1000 nM

QUERY: Request: CNc1ncc(-c2nc3ccccc3[nH]2)c2cc(NC(=O)C3CC3)ncc12
RESULT: ≤ 100 nM

---

Biological target: TYK2 JH2 (Homo sapiens, UniProt P29597)
Construct: purchased DiscoverX (KINOMEscan KdELECT service); host or cells: E. coli BL21-derived (T7 phage display) or HEK-293
Experiment: TYK2 JH2 binding assay (KINOMEscan KdELECT competitive binding)
Details: TYK2 JH2 domain, KINOMEscan KdELECT (Assay A); read-out: Biochemical TYK2_JH2_Kd
quantityName: Kd

Some solved entries appear below for comparison.
CNc1ncc(-c2ccccc2)c2cc(NC3COC3)ncc12 | 100 to 1000 nM
CNc1ncc(Br)c2cc(NC(=O)C3CC3)nnc12 | ≤ 100 nM
CNc1ncc(-c2ccc(-n3cccn3)cc2)c2cc(NC(=O)C3CC3)ncc12 | ≤ 100 nM

QUERY: Kd of CNc1ncc(-c2ccccc2)c2cc(Nc3ccccc3)ncc12 on TYK2 JH2 (Homo sapiens, UniProt P29597)?
RESULT: 100 to 1000 nM

QUERY: Okay, and CSc1ncc(-c2ccccc2)c2cc(NC(=O)C3CC3)ncc12 ?
RESULT: 100 to 1000 nM

QUERY: And CNc1ncc(-c2ccn3nc(N4CCC4)nc3c2)c2cc(NC(=O)C3CC3)ncc12 ?
RESULT: ≤ 100 nM

QUERY: // next record CNc1ncc(-c2cccc(OC)c2)c2cc(NC(=O)C3CC3)ncc12
RESULT: ≤ 100 nM

QUERY: Another: CNc1ncc(-c2ncn(C)n2)c2cc(NC(=O)C3CC3)ncc12
RESULT: ≤ 100 nM

QUERY: // repeat for C=Cc1cnc(NC)c2cnc(NC(=O)C3CC3)cc12 and report
RESULT: ≤ 100 nM
